The measurements presented in this section are drawn from patent US20060069084A1.

Parameter IC50: see the listing below.
TARGET: JAK1 (Homo sapiens)
Construct: The kinase domain of humanJAK1 was amplified from U937mRNA; His tag (from pFastBac HTb vector; nickel chelate purification) (N); made in house; host or cells: baculovirus; virus made in Sf9, large-scale expression in High Five insect cells
Sequence (P23458 875-1153 limits assumed): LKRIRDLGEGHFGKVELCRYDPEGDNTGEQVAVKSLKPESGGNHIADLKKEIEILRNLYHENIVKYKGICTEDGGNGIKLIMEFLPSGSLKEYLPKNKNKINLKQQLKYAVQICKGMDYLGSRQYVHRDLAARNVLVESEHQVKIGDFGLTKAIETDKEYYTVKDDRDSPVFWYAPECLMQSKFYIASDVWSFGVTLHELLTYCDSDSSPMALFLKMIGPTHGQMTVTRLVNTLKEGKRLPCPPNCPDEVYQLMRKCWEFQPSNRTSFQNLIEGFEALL
ASSAY TEXT: JAK1 kinase domain capture-based ELISA kinase assay
Type: biochemical
CONDITION DETAILS: Table 6; inhibit 50% of activity at 50 μM

Below are worked cases with known answers.
CCCC/C=C/c1cn2ccnc2c(NCCc2cccnc2)n1    > 50 µM
CC(=O)Nc1ccc(Nc2nc(-c3ccccc3F)cn3ccnc23)cc1    < 50 µM
CCCNc1nc(-c2cccc(N)c2)cn2ccnc12    < 50 µM
CCCC/C=C/c1cn2ccnc2c(NCc2ccncc2)n1    > 50 µM
CC(=O)Nc1ccc(Nc2nc(-c3ccc4c(c3)OCO4)cn3ccnc23)cc1    < 50 µM

Req: Lab note: need IC50 for `Cc1ccc(S(=O)(=O)Nc2ccc(Nc3nc(-c4ccc(CCC(=O)O)cc4)cn4ccnc34)cc2)cc1` on JAK1 (Homo sapiens), anyone have it?
Resp: < 50 µM

* * *

TARGET: TYK2 (Homo sapiens)
Construct: The kinase domain of humanTYK2 was amplified from A549 mRNA; His tag (from pBlueBacHis2A vector; nickel chelate purification) (N); made in house; host or cells: baculovirus; virus made in Sf9, large-scale expression in High Five insect cells
ASSAY TEXT: TYK2 kinase domain capture-based ELISA kinase assay
Format: biochemical
CONDITION DETAILS: Table 6; inhibit 50% of activity at 50 μM
TEST READOUT: IC50

Some solved cases for reference:
CC(=O)Nc1ccc(Nc2nc(-c3ccc4c(c3)OCO4)cn3ccnc23)cc1    < 50 µM
CCN(CCO)c1ccc(Nc2nc(-c3ccc(F)c(Cl)c3)cn3ccnc23)cc1    < 50 µM
c1cc(-c2cn3ccnc3c(Nc3ccc(N4CCOCC4)cc3)n2)ccn1 [drawing 120]    < 50 µM
CCCC/C=C/c1cn2ccnc2c(NCc2ccncc2)n1    > 50 µM
CN1CCCN(c2nc(-c3cccc4ccccc34)cn3ccnc23)CC1    > 50 µM
CCCNc1nc(-c2cccc(N)c2)cn2ccnc12    > 50 µM
Clc1ccccc1-c1cn2ccnc2c(Nc2ccc3[nH]ccc3c2)n1    < 50 µM
COc1ccccc1-c1cn2ccnc2c(Nc2ccc(CCO)cc2)n1    < 50 µM

Req: Entry `Oc1cccc(-c2cn3ccnc3c(NC3CC3)n2)c1` has what IC50?
Resp: < 50 µM

Req: Lookup `CC(=O)Nc1ccc(Nc2nc(-c3ccccc3F)cn3ccnc23)cc1`
Resp: < 50 µM

Req: One more molecule: `O=C(O)c1cccc(-c2cn3ccnc3c(Nc3ccc(N4CCOCC4)cc3)n2)c1`
Resp: < 50 µM

* * *

TARGET: JAK2 (Homo sapiens, UniProt O60674)
Construct: The kinase domain of humanJAK2 was amplified from U937mRNA; His tag (from pFastBac HTc vector; nickel chelate purification) (N); made in house; host or cells: baculovirus; virus made in Sf9, large-scale expression in High Five insect cells
Sequence (O60674 849-1124 limits assumed): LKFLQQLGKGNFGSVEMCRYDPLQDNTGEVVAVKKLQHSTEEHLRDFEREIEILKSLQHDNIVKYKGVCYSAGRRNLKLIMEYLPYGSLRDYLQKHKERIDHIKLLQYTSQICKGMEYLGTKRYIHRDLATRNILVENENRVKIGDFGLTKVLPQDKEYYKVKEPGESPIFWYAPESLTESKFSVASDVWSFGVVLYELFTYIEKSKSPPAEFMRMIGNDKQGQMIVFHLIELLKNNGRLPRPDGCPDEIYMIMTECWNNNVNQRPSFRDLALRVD
ASSAY TEXT: JAK2 kinase domain capture-based ELISA kinase assay
Format: biochemical
CONDITION DETAILS: Table 6; inhibit 50% of activity at 50 μM
pIC50: −log10 of the molar value.
TEST READOUT: pIC50

COc1ccccc1-c1cn2ccnc2c(Nc2ccc(CCO)cc2)n1    > 4.30
c1ccc(-c2cn3ccnc3c(NCc3ccncc3)n2)cc1    < 4.30
Oc1ccc(-c2cn3ccnc3c(Nc3ccccc3)n2)cc1    > 4.30
CCCC/C=C/c1cn2ccnc2c(NCCc2cccnc2)n1    < 4.30
Nc1cccc(-c2cn3ccnc3c(Nc3ccccc3)n2)c1 [drawing 87]    > 4.30
CC(=O)Nc1ccc(Nc2nc(-c3ccc4c(c3)OCO4)cn3ccnc23)cc1    > 4.30
c1cc(-c2cn3ccnc3c(Nc3ccc(N4CCOCC4)cc3)n2)ccn1 [drawing 120]    > 4.30
OCCc1ccc(Nc2nc(-c3ccccc3F)cn3ccnc23)cc1    > 4.30
COCCNc1nc(-c2ccccc2)cn2ccnc12 [drawing 93]    > 4.30
FC(F)(F)Oc1cccc(-c2cn3ccnc3c(Nc3ccccc3)n2)c1    > 4.30

The record that follows has no pIC50 shown yet.
Req: Can you look up the measured pIC50 of `Fc1ccccc1-c1cn2ccnc2c(Nc2ccc(N3CCOCC3)cc2)n1` for me?
Resp: > 4.30

* * *

TARGET: JAK2 (Homo sapiens)
Construct: The kinase domain of humanJAK2 was amplified from U937mRNA; His tag (from pFastBac HTc vector; nickel chelate purification) (N); made in house; host or cells: baculovirus; virus made in Sf9, large-scale expression in High Five insect cells
ASSAY TEXT: JAK2 kinase domain capture-based ELISA kinase assay
Type: biochemical
CONDITION DETAILS: Table 6; inhibit 50% of activity at 50 μM
pIC50: −log10 of the molar value.
Entries annotated with measured pIC50

Observe how each entry below is paired with its result.
NCc1cccc(-c2cn3ccnc3c(Nc3ccccc3)n2)c1    > 4.30
Cc1ccc(S(=O)(=O)Nc2ccc(Nc3nc(-c4cccc(N)c4)cn4ccnc34)cc2)cc1    > 4.30
O=C(O)c1ccc(-c2cn3ccnc3c(Nc3ccc(Cl)cc3)n2)cc1    > 4.30
CCN(CCO)c1ccc(Nc2nc(Br)cn3ccnc23)cc1 [drawing 101]    > 4.30
CN(C)CCNC(=O)c1cccc(-c2cn3ccnc3c(Nc3ccc(Cl)cc3)n2)c1    > 4.30
CC(=O)Nc1cccc(-c2cn3ccnc3c(Nc3ccccc3)n2)c1    > 4.30
COc1ccccc1-c1cn2ccnc2c(Nc2ccc(N3CCOCC3)cc2)n1    > 4.30
c1cn2cc(-c3ccc4c(c3)OCO4)nc(Nc3ccc(N4CCOCC4)cc3)c2n1    > 4.30

Please examine the following record next.
Req: Lab note: need pIC50 for `O=C(O)c1ccc(-c2cn3ccnc3c(N3CCN(c4ccncc4)CC3)n2)cc1` on JAK2 (Homo sapiens), anyone have it?
Resp: > 4.30

* * *

TARGET: TYK2 (Homo sapiens, UniProt P29597)
Construct: The kinase domain of humanTYK2 was amplified from A549 mRNA; His tag (from pBlueBacHis2A vector; nickel chelate purification) (N); made in house; host or cells: baculovirus; virus made in Sf9, large-scale expression in High Five insect cells
Sequence (P29597 897-1176 limits assumed): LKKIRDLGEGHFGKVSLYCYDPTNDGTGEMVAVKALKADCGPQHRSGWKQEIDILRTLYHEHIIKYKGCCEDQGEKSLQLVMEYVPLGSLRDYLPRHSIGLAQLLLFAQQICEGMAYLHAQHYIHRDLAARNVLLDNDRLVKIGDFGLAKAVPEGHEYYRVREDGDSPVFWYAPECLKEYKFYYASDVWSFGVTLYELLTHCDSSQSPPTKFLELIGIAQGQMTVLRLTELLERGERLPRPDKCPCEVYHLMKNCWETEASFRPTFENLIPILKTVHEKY
ASSAY TEXT: TYK2 kinase domain capture-based ELISA kinase assay
Type: biochemical
CONDITION DETAILS: Table 6; inhibit 50% of activity at 50 μM
Experimental: For screening purposes, compounds were diluted in 96 well plates at a concentration of 50 μM or 20 μM. Plates were warmed at 37° C. for 30 minutes before assay. […] The biotinylated substrate biotin-EGPWLEEEEEAYGWMDF-NH2 (SEQ ID NO:9) (final concentration 5 μM) was used as substrate, and tyrosine phosphorylation was quantitated following transfer to an avidin coated ELISA plate using peroxidase-linked anti-phospho-tyrosine antibody PY20. […]
pIC50: −log10 of the molar value.
TEST READOUT: pIC50

For orientation, consider the following solved cases.
c1coc(-c2cn3ccnc3c(Nc3ccc(N4CCOCC4)cc3)n2)c1    > 4.30
CN(C)c1ccc(-c2cn3ccnc3c(NC3CC3)n2)cc1    < 4.30
CN(C)CCNC(=O)c1ccc(-c2cn3ccnc3c(Nc3ccc(C(=O)O)cc3)n2)cc1    > 4.30

Req: What value of measured pIC50 is listed for `FC(F)C(F)(F)Oc1cccc(Nc2nc(-c3cc(C(F)(F)F)cc(C(F)(F)F)c3)cn3ccnc23)c1` ?
Resp: < 4.30

Req: Same again, this time with `CN(C)C(=O)COc1cccc(Nc2nc(-c3ccccc3)cn3ccnc23)c1`
Resp: > 4.30

Req: Follow-up item: `Cc1ccc(Nc2nc(-c3ccccc3Cl)cn3ccnc23)cc1NS(C)(=O)=O`
Resp: > 4.30

* * *

TARGET: JAK3 (Homo sapiens)
Construct: The kinase domain of humanJAK3 was amplified from U937mRNA; His tag (from pFastBac HTb vector; nickel chelate purification) (N); made in house; host or cells: baculovirus; virus made in Sf9, large-scale expression in High Five insect cells
Sequence (P52333 822-1111 limits assumed): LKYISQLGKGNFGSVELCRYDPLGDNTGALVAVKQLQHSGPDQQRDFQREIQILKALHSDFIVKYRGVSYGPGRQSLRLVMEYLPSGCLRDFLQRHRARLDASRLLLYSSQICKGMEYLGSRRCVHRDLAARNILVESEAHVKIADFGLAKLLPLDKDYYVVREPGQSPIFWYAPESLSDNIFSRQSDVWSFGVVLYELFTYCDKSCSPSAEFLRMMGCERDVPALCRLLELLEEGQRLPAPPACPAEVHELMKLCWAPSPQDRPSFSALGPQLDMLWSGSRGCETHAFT
ASSAY TEXT: JAK3 kinase domain capture-based ELISA kinase assay
Assay type: biochemical
CONDITION DETAILS: Table 6; inhibit 50% of activity at 50 μM
pIC50: −log10 of the molar value.
TEST READOUT: pIC50

Req: # lookup: pIC50 of `COc1ccc(Nc2nc(-c3c(C)cccc3C)cn3ccnc23)cn1`
Resp: > 4.30

Req: Also check `CCCC/C=C/c1cn2ccnc2c(Nc2ccc(N(CC)CCO)cc2)n1`
Resp: > 4.30

Req: Consider next the compound `COc1cc(-c2cn3ccnc3c(NCC3CC3)n2)ccc1O` in the same way.
Resp: < 4.30

Req: Next entry: `CN1CCN(c2nc(-c3cccnc3)cn3ccnc23)CC1`
Resp: < 4.30

Req: Then what about the compound `Cc1ccc(Nc2nc(-c3ccccc3Cl)cn3ccnc23)cc1NS(C)(=O)=O` ?
Resp: < 4.30
